Origin of measurements: PubChem BioAssay (NCATS)

tgt: Cellular tumor antigen p53 (Homo sapiens) (UniProt P04637)
Sequence (P04637 whole entry, looked up): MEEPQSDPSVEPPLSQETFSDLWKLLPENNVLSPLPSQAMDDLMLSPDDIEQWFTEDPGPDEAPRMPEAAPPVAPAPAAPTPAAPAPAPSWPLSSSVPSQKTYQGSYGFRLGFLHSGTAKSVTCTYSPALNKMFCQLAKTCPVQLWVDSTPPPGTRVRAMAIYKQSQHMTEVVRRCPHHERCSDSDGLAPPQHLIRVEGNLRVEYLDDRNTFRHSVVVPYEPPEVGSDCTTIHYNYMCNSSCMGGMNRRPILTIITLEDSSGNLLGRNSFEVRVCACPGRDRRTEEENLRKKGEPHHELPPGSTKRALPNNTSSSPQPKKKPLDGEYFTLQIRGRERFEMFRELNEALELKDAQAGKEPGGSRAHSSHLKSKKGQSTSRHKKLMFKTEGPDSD
test.details: Primary qHTS for small molecule compounds that upregulate eGFP-tagged delta133p53alpha (in N-terminal) cells. (AID 2060322);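 note: cells pre-induced with doxycycline then dosed without doxycycline; series mostly up to about 56 µM; 0% = DMSO vehicle and 100% = reference activator; nearly all actives have a fitted effect of over 75% in size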
details: NCI-H358 eGFP-delta133p53alpha fluorescence, 24 h; hits give high values
Results filed as inconclusive are left out.
measured.attribute: activation (%)

[[record]]
molecule = "O=C(NN1CCCCC1)c1nn(-c2ccc(Cl)cc2Cl)c(-c2ccc(C#Cc3ccc(C(F)(F)F)cc3)s2)c1CNS(=O)(=O)N1CCCC1"
tgt = "Cellular tumor antigen p53 (Homo sapiens) (UniProt P04637)"
result_number = -21

[[record]]
molecule = "C=C1C2(C)CC3C4(C)OC(C5OC56C4=CC(=O)OC6(C)C)C3(C)C13C(=O)OC(C)C3(O)C2=O (stereo not given)"
tgt = "Cellular tumor antigen p53 (Homo sapiens) (UniProt P04637)"
result_number = -9.92

[[record]]
molecule = "CN1c2cc(O)c(N=NC(N)=O)cc2CC1S(=O)(=O)O (stereo not given)"
tgt = "Cellular tumor antigen p53 (Homo sapiens) (UniProt P04637)"
result_number = 16.4

[[record]]
molecule = "O=C(Cc1ccc(-c2ccc(OCCN3CCOCC3)cc2)cn1)NCc1ccccc1"
tgt = "Cellular tumor antigen p53 (Homo sapiens) (UniProt P04637)"
result_number = 20.5

[[record]]
molecule = "O=C(O)CCC(=O)N1CCCC1C(=O)O (stereo not given)"
tgt = "Cellular tumor antigen p53 (Homo sapiens) (UniProt P04637)"
result_number = 8.81

